assay: pI values of BSA tryptic peptides; assay type: physicochemical
Square brackets hold non-standard residues; d marks the D form. Ends that are not written are not given here. Met(O) = CS(=O)CC[C@H](N)C(=O)O
List of pI values.
quantity: pI

# substance, measured-result
data = [
    ("DAFLGSFLYEYSR (listed as Homo sapiens) [SEQ ID No: 13, tryptic peptide of BSA]", 4.4),
    ("RHPEYAVSVLLR (listed as Homo sapiens) [SEQ ID No: 9, tryptic peptide of BSA]", 8.8),
    ("LKPDPNTLCDEFK (listed as Homo sapiens) [SEQ ID No: 12, tryptic peptide of BSA]", 4.6),
    ("YNGVFQECCQAEDK (listed as Homo sapiens) [SEQ ID No: 15, tryptic peptide of BSA]", 4.1),
    ("TVMENFVAFVDK (listed as Homo sapiens) [SEQ ID No: 16, tryptic peptide of BSA]", 4.4),
    ("ETYGDM(o)ADCCEK (ETYGD[Met(O)]ADCCEK; cysteine pairing not given here; listed as Homo sapiens) [SEQ ID No: 20, tryptic peptide of BSA]", 3.9),
    ("KQTALVELLK (listed as Homo sapiens) [SEQ ID No: 6, tryptic peptide of BSA]", 8.6),
]

* * *

assay: pI values of BSA tryptic peptides; type: physicochemical
Square brackets hold non-standard residues; d marks the D form. Ends that are not written are not given here. Met(O) = CS(=O)CC[C@H](N)C(=O)O
# cutoff 5 applies to pI; >= gives y, < gives n

# substance, category-label
measured = [
    ("KVPQVSTPTLVEVSR (listed as Homo sapiens) [SEQ ID No:5, tryptic peptide of BSA]", "y"),
    ("ETYGDMADCCEK (listed as Homo sapiens) [SEQ ID No: 21, tryptic peptide of BSA]", "n"),
    ("LVNELTEFAK (listed as Homo sapiens) [SEQ ID No: 4, tryptic peptide of BSA]", "n"),
    ("VPQVSTPTLVEVSR (listed as Homo sapiens) [SEQ ID No: 3, tryptic peptide of BSA]", "y"),
    ("EYEATLEECCAK (listed as Homo sapiens) [SEQ ID No: 18, tryptic peptide of BSA]", "n"),
    ("LGEYGFQNALIVR (listed as Homo sapiens) [SEQ ID No: 10, tryptic peptide of BSA]", "y"),
    ("TCVADESHAGCEK (listed as Homo sapiens) [SEQ ID No: 19, tryptic peptide of BSA]", "n"),
    ("RHPYFYAPELLYYANK (listed as Homo sapiens) [SEQ ID No: 8, tryptic peptide of BSA]", "y"),
    ("LVTDLTK (listed as Homo sapiens) [SEQ ID No: 1, tryptic peptide of BSA]", "y"),
    ("M(o)PCTEDYLSLILNR ([Met(O)]PCTEDYLSLILNR; listed as Homo sapiens) [SEQ ID No: 14, tryptic peptide of BSA]", "n"),
    ("SLHTLFGDELCK (listed as Homo sapiens) [SEQ ID No: 11, tryptic peptide of BSA]", "y"),
    ("ECCHGDLLECADDR (listed as Homo sapiens) [SEQ ID No: 17, tryptic peptide of BSA]", "n"),
    ("AEFVEVTK (listed as Homo sapiens) [SEQ ID No: 7, tryptic peptide of BSA]", "n"),
    ("YIYEIAR (listed as Homo sapiens) [SEQ ID No: 2, tryptic peptide of BSA]", "y"),
]
